Target: GPR139 (Homo sapiens)
Sequence (Q6DWJ6 1-353): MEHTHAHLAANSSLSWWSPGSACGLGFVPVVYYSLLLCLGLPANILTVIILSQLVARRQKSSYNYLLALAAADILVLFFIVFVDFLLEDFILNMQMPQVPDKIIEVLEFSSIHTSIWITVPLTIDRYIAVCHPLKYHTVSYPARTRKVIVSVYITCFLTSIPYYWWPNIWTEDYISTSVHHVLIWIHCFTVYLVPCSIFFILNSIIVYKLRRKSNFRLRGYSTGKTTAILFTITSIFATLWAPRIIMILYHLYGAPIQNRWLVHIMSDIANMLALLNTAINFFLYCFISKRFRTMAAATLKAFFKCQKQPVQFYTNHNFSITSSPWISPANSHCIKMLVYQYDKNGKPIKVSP
Assay: GPR139 Agonist titration / agonist counterscreen assay (calcium detection, HEK-GPR139 cells)
Type: cell-based
Design: expressed in transfected cells; host or cells: HEK Aequorin cells, Maxcyte transient transfection
Conditions: GPR139 Agonist Activity; HEK-GPR139 cells; read-out: EC50
QUANTITY: pEC50
API: returns pEC50 as number; meaning -log10 of concentration in mol/L.

> print(dat)
                                   molecule  observed.result
1  COc1cc(C(=O)NNC(=O)CCc2c[nH]c3ccccc23)ccc1OC(C)C             6.34
2  CCCCC(O)CCNC(=O)C1CC(=O)N(CCc2ccc(C)cc2)C1 (centres unmarked)             6.38
3  COc1ccccc1CN1CCNC(=O)C1CC(=O)NCCCN1CCc2ccccc21 (centres unmarked)             6.16
4  N[C@H](Cc1ccccc1Cl)c1nc2ccc(-c3ccncc3)cc2[nH]1.O=C(O)C(F)(F)F.O=C(O)C(F)(F)F             6.03
5  CC1CCCC(NC(=O)CN2CCN(Cc3ccc(F)cc3Cl)C2=O)C1C (centres unmarked)             6.31

According to the records, this molecule `Cc1ccc2c(c1)-c1c(cnn1CC(=O)Nc1ncccc1C)CO2` displays pEC50 of 6.14

pEC50 measured on COc1ccc(CC(=O)NNC(=O)C(C)Oc2ccc(Cl)cc2Cl)cc1OC (centres unmarked) = 5.92

Value of measured pEC50 for the entry Cc1ccccc1-c1nc(C[S+]([O-])CC(=O)NC(C)CCc2ccccc2)c(C)o1 (centres unmarked) : 6.44

Lookup result for O=C(CN1CC(=O)N(Cc2ccc(O)cc2)C(c2ccccc2Cl)C1=O)NCc1ccco1 (centres unmarked) ; measured pEC50: 6.33

* * *

biological target: GPR139 (Homo sapiens, UniProt Q6DWJ6); assay: GPR139 Agonist titration / agonist counterscreen assay (calcium detection, HEK-GPR139 cells); format: cell-based; parameters: expressed in transfected cells; host or cells: HEK Aequorin cells, Maxcyte transient transfection; conditions: GPR139 Agonist Activity; based on logD
Reported Lipophilic Efficiency (logD) is given for each of the following molecules.

> print(dat)
                                   molecule                      quantity  observed.result
1      Cc1ccc(SCC(=O)Nc2nnc(-c3ccco3)o2)cc1  Lipophilic Efficiency (logD)             4.46
2    Cc1cccc(NC(=O)Cn2ncc3c2-c2ccccc2OC3)n1  Lipophilic Efficiency (logD)             5.32
3  C=C1C(CC(=C)C2Cc3ccc4ccccc4c3C2)=CC(c2ccccc2)=CC1C (centres unmarked)  Lipophilic Efficiency (logD)             4.66
4  COc1ccccc1C(=O)NNC(=O)C(C)Oc1ccc(Cl)cc1Cl (centres unmarked)  Lipophilic Efficiency (logD)             4.30

Sample `O=C(CCc1nc2ccccc2s1)NNC(=O)C1CCCCC1` ; Lipophilic Efficiency (logD) observed: 4.23

For this molecule ( CC1=NNC(=O)C1CC(=O)N/N=C/c1cccc2ccccc12 (centres unmarked) ), measured Lipophilic Efficiency (logD) is 4.98

What the record says about O=C(CN1C(=O)NC2(CCc3ccccc3C2)C1=O)N1CCc2ccccc2C1 (centres unmarked) : Lipophilic Efficiency (logD) is 4.25

Entry `COc1ccc(NC(=O)Cn2ncc3c2-c2ccccc2OC3)cc1Cl` , Lipophilic Efficiency (logD) reported as 4.16
